experiment: Cytotoxicity against mouse J774.A1 cells assessed as cell survival at 64 microg/ml by XTT assay; format: toxicity, cell-based; details: at 64 µg/mL, read-out: Activity

{"Smiles Record": "O=C(CCCN1CCC(O)(c2ccc(Br)cc2)CC1)c1ccc(F)cc1", "viability at 64 microg/ml (%)": 30}

====

test: Cytotoxicity against human BEAS-2B cells assessed as cell survival by XTT assay; assay type: toxicity, cell-based; settings: read-out: Activity
Measured viability accompanies every entry in the list below.

{"Smiles Record": "CC[C@@H]([C@H](C)O)n1ncn(-c2ccc(N3CCN(c4ccc(OC[C@@H]5CO[C@@](Cn6cncn6)(c6ccc(F)cc6F)C5)cc4)CC3)cc2)c1=O", "viability": "> 100%"}
{"Smiles Record": "O=C(CCCN1CCC(O)(c2ccc(Br)cc2)CC1)c1ccc(F)cc1", "viability": "> 100%"}
{"Smiles Record": "C[C@@H](c1ncncc1F)[C@](O)(Cn1cncn1)c1ccc(F)cc1F", "viability": "> 100%"}

====

Measured viability accompanies every entry in the list below.
test: Cytotoxicity against mouse J774.A1 cells assessed as cell survival by XTT assay; assay type: toxicity, cell-based; settings: read-out: Activity
Assay Readout: viability

{"Smiles Record": "C[C@@H](c1ncncc1F)[C@](O)(Cn1cncn1)c1ccc(F)cc1F", "Recorded Value": "> 100%"}
{"Smiles Record": "CC[C@@H]([C@H](C)O)n1ncn(-c2ccc(N3CCN(c4ccc(OC[C@@H]5CO[C@@](Cn6cncn6)(c6ccc(F)cc6F)C5)cc4)CC3)cc2)c1=O", "Recorded Value": "> 100%"}
{"Smiles Record": "O=C(CCCN1CCC(O)(c2ccc(Br)cc2)CC1)c1ccc(F)cc1", "Recorded Value": "> 100%"}

====

assay: Cytotoxicity against mouse J774.A1 cells assessed as cell survival at 8 microg/ml by XTT assay; format: toxicity, cell-based; settings: J774.A1 cells, at 8 µg/mL, read-out: Activity
Assay Readout: viability at 8 microg/ml (%)

{"Smiles Record": "C[C@@H](c1ncncc1F)[C@](O)(Cn1cncn1)c1ccc(F)cc1F", "Assay Readout": "viability at 8 microg/ml", "Recorded Value": 100}
{"Smiles Record": "CC[C@@H]([C@H](C)O)n1ncn(-c2ccc(N3CCN(c4ccc(OC[C@@H]5CO[C@@](Cn6cncn6)(c6ccc(F)cc6F)C5)cc4)CC3)cc2)c1=O", "Assay Readout": "viability at 8 microg/ml", "Recorded Value": 80}

====

Measured MIC accompanies every entry in the list below.
system: Candida albicans; test: Synergistic antifungal activity against Candida albicans ATCC 10231 assessed as compound MIC measured after 48 hrs in presence of ketoconazole by checkboard based microplate reader analysis; format: functional

{"Smiles Record": "O=C(CCCN1CCC(O)(c2ccc(Br)cc2)CC1)c1ccc(Cl)cc1", "Target System": "Candida albicans", "Relational Operator": "=", "MIC (µg/mL)": 16}
{"Smiles Record": "O=C(CCCN1CCC(O)(c2ccc(Br)cc2)CC1)c1ccccc1", "Target System": "Candida albicans", "Relational Operator": ">", "MIC (µg/mL)": 64}
{"Smiles Record": "O=C(CCCN1CCC(O)(c2ccc(Br)cc2)CC1)c1ccc(Br)cc1", "Target System": "Candida albicans", "Relational Operator": "=", "MIC (µg/mL)": 1}
{"Smiles Record": "O=C(CCCN1CCC(O)(c2ccc(Br)cc2)CC1)c1ccc(F)cc1", "Target System": "Candida albicans", "Relational Operator": "=", "MIC (µg/mL)": 32}
{"Smiles Record": "COc1ccc(C(=O)CCCN2CCC(O)(c3ccc(Br)cc3)CC2)cc1", "Target System": "Candida albicans", "Relational Operator": ">", "MIC (µg/mL)": 128}
